biological target: p97 ATPase WT (Homo sapiens (Human)); assay: p97 ADP-Glo assay; format: biochemical; details: Table 3; read-out: ADPGlo IC50
Sequence (P55072 whole entry): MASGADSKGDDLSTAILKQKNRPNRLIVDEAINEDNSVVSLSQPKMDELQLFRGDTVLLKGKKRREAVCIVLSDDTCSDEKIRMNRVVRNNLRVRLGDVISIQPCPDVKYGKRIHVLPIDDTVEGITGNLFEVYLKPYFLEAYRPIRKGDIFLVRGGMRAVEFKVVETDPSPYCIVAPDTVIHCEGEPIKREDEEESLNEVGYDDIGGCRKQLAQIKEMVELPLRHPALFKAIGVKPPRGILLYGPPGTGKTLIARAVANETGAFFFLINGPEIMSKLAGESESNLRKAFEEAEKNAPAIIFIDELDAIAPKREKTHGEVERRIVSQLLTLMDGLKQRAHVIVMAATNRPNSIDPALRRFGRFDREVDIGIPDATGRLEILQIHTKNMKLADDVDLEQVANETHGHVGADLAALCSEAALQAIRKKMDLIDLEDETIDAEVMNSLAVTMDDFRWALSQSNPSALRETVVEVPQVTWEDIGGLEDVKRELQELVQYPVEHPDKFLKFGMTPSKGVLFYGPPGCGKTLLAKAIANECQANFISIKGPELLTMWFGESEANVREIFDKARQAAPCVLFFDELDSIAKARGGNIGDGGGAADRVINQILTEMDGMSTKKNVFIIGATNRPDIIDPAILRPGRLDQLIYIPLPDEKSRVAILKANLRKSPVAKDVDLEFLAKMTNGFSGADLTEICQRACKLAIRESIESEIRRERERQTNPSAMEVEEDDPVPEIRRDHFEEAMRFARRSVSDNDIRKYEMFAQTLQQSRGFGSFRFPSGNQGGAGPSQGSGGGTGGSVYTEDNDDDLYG
// reported IC50 for each item listed
Measurement Name: IC50 (µM)

[[record]]
compound = "CN1CCC(NC2CCN(c3cccc(-c4cc5ccccc5[nH]4)c3)CC2)CC1"
measured_value = 0.38

[[record]]
compound = "CCC(C)N1CCN(CCNC2CCN(c3cccc(-c4cc5ccccc5[nH]4)c3)CC2)CC1 (stereo not shown)"
measured_value = 0.11

[[record]]
compound = "c1ccc(CCNC2CCN(c3cccc(-c4cc5ccccc5[nH]4)c3)CC2)cc1"
measured_value = 2.7

[[record]]
compound = "CC(C)N1CCN(CCNC2CCN(c3cccc(-c4cc5ccccc5o4)c3)CC2)CC1"
measured_value = 20

[[record]]
compound = "CNC(=O)CCNC1CCN(c2cccc(-c3cc4cc(F)ccc4[nH]3)c2)CC1"
measured_value = 0.63

[[record]]
compound = "CN1CCN(C2(CNC3CCN(c4cccc(-c5cc6ccccc6[nH]5)c4)CC3)CCC2)CC1"
measured_value = 0.14

[[record]]
compound = "CC(C)(C)OC(=O)N1CCN(CCNC2CCN(c3cccc(-c4cc5ccccc5[nH]4)c3)CC2)CC1"
measured_value = 2.4

[[record]]
compound = "CC(C)(C)N1CCN(CCNC2CCN(c3cccc(-c4cc5ccccc5[nH]4)c3)CC2)CC1"
measured_value = 0.13

[[record]]
compound = "CC(C)N1CCN(CCNC2CCN(c3cccc(-c4cc5cccc(F)c5[nH]4)c3)CC2)CC1"
measured_value = 3.3

[[record]]
compound = "c1ccc(CNC2CCN(c3cccc(-c4cc5ccccc5[nH]4)c3)CC2)nc1"
measured_value = 1

[[record]]
compound = "CC(C)N1CCN(CCNC2CCN(c3cncc(-c4cc5ccccc5[nH]4)c3)CC2)CC1"
measured_value = 8

[[record]]
compound = "CC(C)N1CCN(CCNC2CCN(c3cccc(-c4cc5cc(Cl)ccc5[nH]4)c3)CC2)CC1"
measured_value = 0.12

[[record]]
compound = "CC(C)N1CCC(NC2CCN(c3cccc(-c4cc5cc(S(=O)(=O)NC(C)(C)C)ccc5[nH]4)c3)CC2)CC1"
measured_value = 14

[[record]]
compound = "CN(C)CCNC1CCN(c2cccc(-c3cc4ccccc4[nH]3)c2)CC1"
measured_value = 0.57

[[record]]
compound = "CC(C)N1CCN(C2(CNC3CCN(c4cccc(-c5cc6cc(F)ccc6[nH]5)c4)CC3)CCC2)CC1"
measured_value = 0.13

[[record]]
compound = "CC(C)N1CCN(CCNC2CCN(c3cccc(-c4nc5ccccc5n4-c4ccc(C(c5ccccc5)c5ccccc5)cc4)c3)CC2)CC1"
measured_value = 7.1

[[record]]
compound = "CCCCNC1CCN(c2cccc(-c3cc4ccccc4[nH]3)c2)CC1"
measured_value = 1.7

[[record]]
compound = "CC(C)N1CCN(CCNC2CCN(c3cccc(-c4cc5ccc(N)cc5[nH]4)c3)CC2)CC1"
measured_value = 5.2

[[record]]
compound = "CN1CCN(C2CCN(c3cccc(-c4cc5ccccc5[nH]4)c3)CC2)CC1"
measured_value = 13

